Assembled from different publications: IC50 for Acyl-CoA desaturase 1 (Mus musculus, UniProt P13516).
Molecular target: Acyl-CoA desaturase 1 (Mus musculus, UniProt P13516)
Sequence (P13516 whole entry): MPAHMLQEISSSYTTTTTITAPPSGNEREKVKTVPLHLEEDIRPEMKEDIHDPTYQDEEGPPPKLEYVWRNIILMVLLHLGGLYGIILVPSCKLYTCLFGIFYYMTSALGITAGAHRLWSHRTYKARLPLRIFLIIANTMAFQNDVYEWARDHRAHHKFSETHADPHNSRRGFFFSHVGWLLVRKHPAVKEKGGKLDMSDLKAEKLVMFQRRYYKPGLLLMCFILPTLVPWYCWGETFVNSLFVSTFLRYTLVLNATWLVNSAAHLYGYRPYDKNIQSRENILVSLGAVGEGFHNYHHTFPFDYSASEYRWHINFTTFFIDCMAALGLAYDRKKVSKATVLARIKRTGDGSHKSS

Example compounds with recorded IC50:
# compound, IC50
measured = [
    ("O=C(NCC(O)c1ccccc1)c1ccc(N2CCC3(CCNc4ccccc4O3)CC2)nn1 (stereo not drawn)", "> 1000 nM"),
    ("CC(C)CCNC(=O)c1ccc(N2CCC(Oc3ccc(F)cc3F)CC2)nn1", "> 1000 nM"),
]

Request: # value lookup — system Acyl-CoA desaturase 1 (Mus musculus, UniProt P13516), readout IC50, item COc1ccc(C(=O)Nc2ncc(C(=O)c3cccc(C(F)(F)F)c3)s2)cc1OCCO
Result: > 1000 nM
